- System Name: Avi-humanTEAD4^217-434 / Cy5 labeled humanYAP^60-100 (Homo sapiens (Human))
- Sequence (Q15561 217-434): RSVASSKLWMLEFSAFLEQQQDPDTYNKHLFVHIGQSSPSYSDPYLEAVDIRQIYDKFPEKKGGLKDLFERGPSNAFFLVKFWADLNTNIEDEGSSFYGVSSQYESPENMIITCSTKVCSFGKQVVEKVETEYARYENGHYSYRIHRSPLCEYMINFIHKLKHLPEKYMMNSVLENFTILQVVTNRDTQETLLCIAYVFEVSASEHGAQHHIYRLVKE
- Assay Details: In-vitro biochemical TR-FRET assay (TEAD4/YAP)
- Conditions: 1 h at room temperature
Observation Type: pIC50
Worth noting: pIC50 values are minus log10 of concentrations stated in mol/L.

In: Look at this compound and give its reported pIC50. COc1ccc(C(=O)N2CCC(CCC3CCN(C(=O)[C@H]4CC[C@H](NC[C@]5(c6ccccc6)Oc6cc(F)c(Cl)c(-c7c(C(N)=O)ccc(OC)c7F)c6[C@@H]5C)CC4)CC3)CC2)cc1N1CCC(=O)NC1=O (atropisomer, axis not shown) [Example 27]
Out: 8.40

In: Look at this compound and give its reported pIC50. COc1ccc(C(N)=O)c(-c2c(Cl)c(F)cc3c2[C@H](C)[C@@](CN[C@H]2CC[C@H](C(=O)N4CCC(OC5CCN(C(=O)COc6ccc(C)c(N7CCC(=O)NC7=O)c6)CC5)CC4)CC2)(c2ccccc2)O3)c1F (atropisomer, axis not shown) [Example 20]
Out: 8.85

In: Look at this compound and give its reported pIC50. COc1ccc(C(N)=O)c(-c2c(Cl)c(F)cc3c2[C@H](C)[C@@](CN[C@H]2CC[C@H](C(=O)OC)CC2)(c2ccccc2)O3)c1F [C-I-k]
Out: 8.72

Values were extracted from patent US20240382600A1.
